Quick list: melting point per entry.

For this molecule ( `COC(=O)c1n[nH]c(N)n1` ), measured melting point is 218 to 222 °C

For this molecule ( `Cc1cnn(Cc2cc(C(=O)O)no2)c1` ), measured melting point is 163 to 165 °C

For this molecule ( `O=Cc1cc2ccccc2nc1O` ), measured melting point is 308 to 310 °C

For this molecule ( CCOC(=O)C1CN(C(=O)OC(C)(C)C)CCN1 (configuration not stated) ), measured melting point is 55 to 57 °C

----------
Quick list: melting point per entry.

Answered cases to consult:
compound	melting point
Cc1ccc(C(=O)c2c(N)sc3c2CCC3)c(C)c1	163 to 165 °C
CCNc1ncccc1N	108 to 110 °C
Nn1c(S)nnc1-c1ccc(Cl)cc1Cl	90 to 92 °C
O=C(O)c1ccnc(C2CC2)c1	257 to 259 °C
CS(=O)(=O)CCCOc1cccc2c1CCC2O (configuration not stated)	77 to 79 °C

For this compound ( `Cc1ccc(O)c(C(=O)NCC(C)C)c1` ), measured melting point is 51 to 53 °C

For this compound ( `COc1ccc2c(-c3ccccc3)cc(S)nc2c1` ), measured melting point is 180 to 182 °C

For this compound ( `O=S(=O)(Cl)c1ccc(Cl)c2ncccc12` ), measured melting point is 111 to 113 °C

----------
Quick list: melting point per entry.

For this molecule ( `O=C(O)c1ccc(Oc2ccc(Cl)cc2)c(Cl)c1` ), measured melting point is 167 to 169 °C

For this molecule ( `COc1cc2c(c(OC)c1OC)CCNC(=O)C2` ), measured melting point is 176 to 178 °C

For this molecule ( `Nc1ccnn1Cc1ccsc1` ), measured melting point is 33 to 35 °C

For this molecule ( `O=C(O)C=Cc1ccc2ccccc2n1` ), measured melting point is 169 to 171 °C

For this molecule ( `O=C(O)c1nc2ncc(Br)cn2n1` ), measured melting point is 199 to 201 °C

For this molecule ( `N#Cc1ccc(Cn2cncn2)c(F)c1` ), measured melting point is 107 to 109 °C

For this molecule ( COC(=O)C(C#N)c1nc2ccccc2nc1Cl (configuration not stated) ), measured melting point is 197 to 199 °C

----------
Quick list: melting point per entry.

Answered cases to consult:
compound	observed.property	result
COC(=O)c1ccc(Cl)nc1C	melting point	30 to 32 °C
O=C(CO)N1CCCC1	melting point	37 to 39 °C
O=S1(=O)CCC(S(=O)(=O)Cl)CC1	melting point	175 to 177 °C
CSc1ccc(OC(C)C(=O)O)cc1 (centres undefined)	melting point	94 to 96 °C
O=[N+]([O-])c1cc(Cl)ccc1I	melting point	63 to 65 °C
CCOCc1nnc(N)o1	melting point	118 to 120 °C

For this compound ( `CC(C)(C)OC(=O)N[C@H]1C[C@H](N)C1` ), measured melting point is 60 to 62 °C

For this compound ( `Cc1ccccc1N(CC(=O)O)S(C)(=O)=O` ), measured melting point is 109 to 111 °C

For this compound ( `O=C(NCc1cccs1)c1ccc(-n2ccnc2S)cc1` ), measured melting point is 195 to 197 °C

For this compound ( CC(c1nnc(S)n1-c1ccc(F)cc1)N(C)C (centres undefined) ), measured melting point is 169 to 171 °C

For this compound ( `CC(=O)Nc1ccccc1CC(=O)O` ), measured melting point is 144 to 146 °C

For this compound ( `O=C(O)/C(=C\c1ccccc1)c1ccc(Cl)cc1` ), measured melting point is 179 to 183 °C

For this compound ( NC(Cc1ccccc1)(C(=O)O)c1ccccc1 (centres undefined) ), measured melting point is 264 to 266 °C

For this compound ( CC(CC(=O)O)C(=O)c1ccc(Cl)cc1 (centres undefined) ), measured melting point is 73 to 75 °C

----------
observed.property: melting point

compound	melting point
Cc1oc(C(=O)O)cc1COc1ccccc1	139 to 141 °C

--- query ---
For this compound ( `Cc1ccc(CNC(=O)C2CCNCC2)cc1` ), measured melting point is 157 to 159 °C

----------
Quick list: melting point per entry.

compound	melting point
NS(=O)(=O)c1ccc(F)cc1[N+](=O)[O-]	153 to 155 °C

For this compound ( `CC(=O)N[C@@H](CC(=O)O)C(N)=O` ), measured melting point is 159 to 161 °C

For this compound ( `O=C(Nc1ccc(Cl)cn1)OCC(F)(F)F` ), measured melting point is 158 to 160 °C

For this compound ( `COC(=O)c1ccc(OCCBr)c(Cl)c1` ), measured melting point is 72 to 74 °C

----------
observed.property: melting point

Answered cases to consult:
compound	result
N#Cc1cc(Br)c2cc[nH]c2c1	139 to 141 °C
Cc1nc(CSCC(=O)O)cs1	155 to 157 °C
CC1CCCN1C(=O)c1ccc(C#N)cc1 (stereo not drawn)	87 to 89 °C
CCNc1cc2c(nn1)CCNC2	140 to 142 °C
c1ccc(CN2CCOC(c3nn[nH]n3)C2)cc1 (stereo not drawn)	178 to 180 °C
O=C(O)c1ccnc(Oc2ccccc2)c1	241 to 243 °C

For this compound ( CC1CCc2[nH]c(=O)sc2C1 (stereo not drawn) ), measured melting point is 180 to 182 °C

For this compound ( `CCOc1cc(C(N)=NO)cc(Br)c1O` ), measured melting point is 157 to 159 °C

----------
Quick list: melting point per entry.

Answered cases to consult:
compound	melting point
O=C1CCCc2sc(Br)cc21	76 to 78 °C
O=C(O)CCc1cn(Cc2ccc(Cl)cc2)c2ccccc12	139 to 141 °C
NS(=O)(=O)c1ccc2c(c1)CC(=O)N2	252 to 254 °C

For this compound ( `C1Cc2nnc(C3CCNCC3)n2C1` ), measured melting point is 126 to 128 °C

For this compound ( CC1CNc2cccnc2N1 (stereo not drawn) ), measured melting point is 110 to 112 °C

For this compound ( `COc1ccc(CNS(=O)(=O)c2c[nH]nc2N)cc1` ), measured melting point is 137 to 139 °C

For this compound ( `c1cncc(NCc2ccco2)c1` ), measured melting point is 45 to 49 °C

For this compound ( `CCN(CC)S(=O)(=O)c1ccc(OC)c(NC(=O)CCl)c1` ), measured melting point is 100 to 102 °C

For this compound ( CC1CCCCC1(NC(=O)OC(C)(C)C)C(=O)O (stereo not drawn) ), measured melting point is 174 to 176 °C

----------
Quick list: melting point per entry.

For this compound ( `Cc1ccc(C)c2[nH]c(C(=O)O)cc12` ), measured melting point is 206 to 208 °C

For this compound ( `O=C(O)Cc1csc(NC(=O)c2ccco2)n1` ), measured melting point is 223 to 225 °C

For this compound ( `NS(=O)(=O)c1cc(C(=O)O)cc2c1CCCC2` ), measured melting point is 275 to 277 °C

For this compound ( Cn1ccnc1C(O)C1CCNCC1 (stereo not drawn) ), measured melting point is 207 to 209 °C

For this compound ( `Clc1cc(SCc2ccccc2)ncn1` ), measured melting point is 71 to 73 °C

For this compound ( `Cn1ncnc1COc1ccc(S(=O)(=O)Cl)cc1` ), measured melting point is 114 to 116 °C

For this compound ( `Cc1ccc(-c2csc(S)n2)cc1` ), measured melting point is 192 to 194 °C

For this compound ( `O=C(O)CCNC(=O)Nc1ccc(Br)cc1` ), measured melting point is 248 to 250 °C

For this compound ( CC(=O)C(Cl)C(=O)Nc1ccccc1 (stereo not drawn) ), measured melting point is 101 to 104 °C

----------
observed.property: melting point

compound	result
Cc1nc(C)c(NC(=O)OC(C)(C)C)s1	90 to 92 °C
CC(C)(C)NC(=O)c1ccccc1C(=O)O	146 to 148 °C
CC(C)Oc1ccc(C(O)CN)cc1 (configuration not stated)	62 to 64 °C
COc1ccc(OCc2cc(C)on2)c(C(=O)O)c1	114 to 116 °C
CC1(C)CC(C=Cc2ccccn2)=Cc2c1sc(N)c2C#N	200 to 202 °C

--- query ---
For this compound ( `O=C(O)c1ccc(F)c(S(=O)(=O)N2CCCCC2)c1` ), measured melting point is 203 to 205 °C

----------
observed.property: melting point

compound	melting point
CCC(C)Nc1ccc(C(N)=O)cc1 (configuration not stated)	113 to 115 °C

For this compound ( `O=C(O)c1cccc(-n2cc(Br)cn2)c1` ), measured melting point is 195 to 197 °C

For this compound ( `CCCNCC(=O)Nc1ccc(Cl)cc1` ), measured melting point is 44 to 46 °C

For this compound ( `O=Cc1cc(Cl)cc(Cl)c1OC(F)F` ), measured melting point is 51 to 53 °C

For this compound ( CN(C)c1ccc(C2CC2C(=O)O)cc1 (configuration not stated) ), measured melting point is 119 to 121 °C

For this compound ( `NC(=O)CCS(=O)(=O)CCCl` ), measured melting point is 139 to 141 °C

For this compound ( `COC(=O)C(=O)CC(=O)c1cccc(Cl)c1` ), measured melting point is 29 to 31 °C
